Cited source for all entries: paper PMC3737524

- target.desc: U1A95 (UniProt P09012 1-95)
- Sequence (P09012 1-95): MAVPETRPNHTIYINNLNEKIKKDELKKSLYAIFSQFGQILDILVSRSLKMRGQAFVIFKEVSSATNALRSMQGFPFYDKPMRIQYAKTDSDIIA
- test.protocol: SPR; ka 2.3e7 M-1s-1; kd 1.8e-2 s-1; Biacore 2000 SPR; running buffer with 125 ug/ml yeast tRNA and 62.5 ug/ml acetylated BSA; buffer, salt, pH and temperature as previously described (not given in material)
- condition.notes: protein: recombinant; tags: N-terminal His6; label: 5' biotin; hairpin
readout.kind: Kd (nM)
Response body: numeric value in nM, unit text excluded.

Query string: Could you share which Kd value was measured for AGCUUAUCCAUUGCACUCCGGAUGAGCU (structured_RNA) [U1hpII] ?
Result string: 0.82
